biological target: receptor binding domain (RBD) of SARS-CoV-2 spike (SARS-CoV-2 Wuhan-Hu-1, UniProt P0DTC2); experiment: ELISA; conditions: both partners purified

| BINDER | binding result |
| --- | --- |
| Nb17 (VHH, Cloned in pET-21b(+); also called class III Nb; source: E. coli BL21 (DE3), purified (cobalt resin, Superdex 75)) VHH: HVQLVESGGGLVQAGGSLRLSCAASGSIFSSNAMSWYRQAPGKQRELVASITSGGNADYADSVKGRFTISRDKNTVYPEMSSLKPADTAVYYCHAVGQEASAYAPRAYWGQGTQVTVSS | binds |
| Nb95 (VHH, Cloned in pET-21b(+)) VHH: QVQLVESGGGLVQAGGSLRLSCAASGRTFSSYSMGWFRQAQGKEREFVATINGNGRDTYYTNSVKGRFTISRDDATNTVYLQMNSLKPEDTAIYYCAADKDVYYGYTSFPNEYEYWGQGTQVTVSS | binds |
| Nb34 (VHH, Cloned in pET-21b(+)) VHH: DVQLVESGGGLVQAGGSLRLSCAASGFTFSNYVMYWGRQAPGKGREWVSGIDSDGSDTAYASSVKGRFTISRDNAKNTLYLQMNNLKPEDTALYYCVKSKDPYGSPWTRSEFDDYWGQGTQVTVSS | binds |
| Nb21 (VHH, Cloned in pET-21b(+); also called class I Nb; source: E. coli BL21 (DE3), purified (cobalt resin, Superdex 75)) VHH: QVQLVESGGGLVQAGGSLRLSCAVSGLGAHRVGWFRRAPGKEREFVAAIGANGGNTNYLDSVKGRFTISRDNAKNTIYLQMNSLKPQDTAVYYCAARDIETAEYTYWGQGTQVTVSS | binds |
